target: anti-H3K9me3 antibody ab8898; assay: peptide microarray binding signal (635 nm), min-max normalized on array (fraction of array maximum); higher = stronger binding; settings: peptide region: Unmod H2B variant; binder concentration: 1:10,000 dilution
The reader will find reported peptide microarray binding signal values listed item by item below.
assayEndpoint: peptide microarray binding signal

- PELAKSAPAPKKG [Unmod H2B variant P E L A K S A P A P K K G]: 0.00133
- ISKKGFKKAVVKT [Unmod H2B variant I S K K G F K K A V V K T]: 0.000461
- EGTKAVTKYTSAK [Unmod H2B variant E G T K A V T K Y T S A K]: 0.00115
- VPKKGSKKAINKA [Unmod H2B variant V P K K G S K K A I N K A]: 0.000461
